Where these numbers come from: patent US20210212996A1

assay: Rat brain penetrance pharmacokinetics, brain to plasma ratio after oral dosing; type: in vivo, male Sprague-Dawley rats; conditions: male, Sprague-Dawley, rat, in vivo, 3 mg/kg, time point 3.0, individual rats; read-out: B/P Ratio
value-type: Kp at 3 h

Qu. Recorded Kp at 3 h for CCc1oc(-c2ccc(OC)cc2)nc1CCOc1ccc2c(c1)CC[C@H]2CC(=O)[O-].[Na+] , please?
Ans. 0.19

====

biological target: human PPARγ (Homo sapiens); construct: expressed in transfected cells; host or cells: CV-1 cells (transient transfection); assay: Human PPAR activation in transient transfection study, transfected CV-1 cells (gamma subtype); format: cell-based; settings: average of three lots; read-out: Average EC50 PPARγ
Sequence (P37231 whole entry): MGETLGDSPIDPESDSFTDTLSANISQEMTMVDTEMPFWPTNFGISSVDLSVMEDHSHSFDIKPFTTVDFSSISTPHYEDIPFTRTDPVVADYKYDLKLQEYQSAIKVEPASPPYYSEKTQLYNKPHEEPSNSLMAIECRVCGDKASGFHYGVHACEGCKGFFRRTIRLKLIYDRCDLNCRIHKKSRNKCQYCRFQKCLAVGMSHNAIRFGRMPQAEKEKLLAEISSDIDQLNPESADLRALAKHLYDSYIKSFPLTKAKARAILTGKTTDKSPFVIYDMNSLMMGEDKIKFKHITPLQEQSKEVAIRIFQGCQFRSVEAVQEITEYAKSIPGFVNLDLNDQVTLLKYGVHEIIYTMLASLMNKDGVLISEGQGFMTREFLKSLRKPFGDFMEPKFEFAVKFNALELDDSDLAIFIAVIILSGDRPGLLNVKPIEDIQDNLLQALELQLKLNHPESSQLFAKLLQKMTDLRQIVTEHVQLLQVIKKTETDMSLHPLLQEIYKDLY
value-type: EC50
The number alone won't do; follow it with the unit.

Qu. Recorded EC50 for CCc1oc(-c2ccc(OC)cc2)nc1CCOc1ccc2c(c1)CC[C@H]2CC(=O)[O-].[Na+] [Example 11] , please?
Ans. 0.297 µM
